assay: Kinetic solubility in PBS at pH 7.4; type: physicochemical; conditions: read-out: Kinetic_solubility
measured metric: log10(solubility kinetic) (log10 of the value in µM)

structure notation: CCc1ccc(NC(=O)COc2cc(C)nc3ccc(OC)cc23)cc1
value observed: 0.58
//
structure notation: COc1ccc2nc(C)cc(OCC(=O)Nc3ccc4c(c3)CCCC4)c2c1
value observed: 0.08
//
structure notation: CCCCc1ccc(NC(=O)COc2cc(C)nc3ccc(OC)cc23)cc1
value observed: 0.36
//
structure notation: COc1ccc2nc(C)cc(OCC(=O)Nc3ccc(C)c(C)c3)c2c1
value observed: 1.03
//
structure notation: COc1ccc2nc(C)cc(OCC(=O)Nc3ccc(C)cc3)c2c1
value observed: 1.25
//
structure notation: CCCc1ccc(NC(=O)COc2cc(C)nc3ccc(OC)cc23)cc1
value observed: 0.38
//
structure notation: COc1ccc2nc(C)cc(OCC(=O)Nc3ccc4c(c3)CCC4)c2c1
value observed: 0.45
//
structure notation: CCCCCc1ccc(NC(=O)COc2cc(C)nc3ccc(OC)cc23)cc1
value observed: 0.67

====

biological target: UniProtKB P10635
Sequence (P10635 whole entry): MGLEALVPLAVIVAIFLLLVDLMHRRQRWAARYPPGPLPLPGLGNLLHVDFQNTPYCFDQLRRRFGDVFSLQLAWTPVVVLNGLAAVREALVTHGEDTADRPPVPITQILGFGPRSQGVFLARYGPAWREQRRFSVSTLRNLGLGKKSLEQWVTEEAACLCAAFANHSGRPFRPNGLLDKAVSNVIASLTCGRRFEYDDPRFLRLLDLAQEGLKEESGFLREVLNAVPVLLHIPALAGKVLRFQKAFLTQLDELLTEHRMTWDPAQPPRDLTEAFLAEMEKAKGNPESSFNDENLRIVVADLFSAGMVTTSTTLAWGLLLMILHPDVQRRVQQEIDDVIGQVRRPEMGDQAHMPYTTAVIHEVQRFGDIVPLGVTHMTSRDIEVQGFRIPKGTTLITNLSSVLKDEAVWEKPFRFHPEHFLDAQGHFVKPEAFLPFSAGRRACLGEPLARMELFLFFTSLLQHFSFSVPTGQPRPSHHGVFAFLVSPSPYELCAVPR
measured metric: IC50

structure notation: CCCCCc1ccc(NC(=O)COc2cc(C)nc3ccc(OC)cc23)cc1
measured metric: IC50
value observed: > 30 µM

====

experiment: Cytotoxicity against mouse N9 cells assessed as viability at 10 uM after 72 hrs by MTT assay relative to control; format: cell-based; details: read-out: Activity
Below is a list of entries, each paired with its recorded viability at 72 h, 10 µM value.

structure notation: COc1ccc2nc(C)cc(OCC(=O)Nc3ccc4c(c3)CCCC4)c2c1
measurement units: %
viability at 72 h, 10 µM: 103
--
structure notation: CCCCCc1ccc(NC(=O)COc2cc(C)nc3ccc(OC)cc23)cc1
measurement units: %
viability at 72 h, 10 µM: 110
--
structure notation: CCCc1ccc(NC(=O)COc2cc(C)nc3ccc(OC)cc23)cc1
measurement units: %
viability at 72 h, 10 µM: 106
--
structure notation: CCc1ccc(NC(=O)COc2cc(C)nc3ccc(OC)cc23)cc1
measurement units: %
viability at 72 h, 10 µM: 112
--
structure notation: COc1ccc2nc(C)cc(OCC(=O)Nc3ccc4c(c3)CCC4)c2c1
measurement units: %
viability at 72 h, 10 µM: 111
--
structure notation: COc1ccc2nc(C)cc(OCC(=O)Nc3ccc(C)c(C)c3)c2c1
measurement units: %
viability at 72 h, 10 µM: 105
--
structure notation: COc1ccc2nc(C)cc(OCC(=O)Nc3ccc(C)cc3)c2c1
measurement units: %
viability at 72 h, 10 µM: 106
--
structure notation: CCCCc1ccc(NC(=O)COc2cc(C)nc3ccc(OC)cc23)cc1
measurement units: %
viability at 72 h, 10 µM: 107

====

Attribute: viability at 72 h, 10 µM
test: Cytotoxicity against African green monkey Vero cells assessed as viability at 10 uM after 72 hrs by MTT assay relative to control; format: cell-based; details: chlorocebus sabaeus, read-out: Activity
measured metric: viability at 72 h, 10 µM (%)

structure notation: COc1ccc2nc(C)cc(OCC(=O)Nc3ccc4c(c3)CCCC4)c2c1
value observed: 94

structure notation: CCc1ccc(NC(=O)COc2cc(C)nc3ccc(OC)cc23)cc1
value observed: 80

structure notation: COc1ccc2nc(C)cc(OCC(=O)Nc3ccc(C)cc3)c2c1
value observed: 95

structure notation: CCCc1ccc(NC(=O)COc2cc(C)nc3ccc(OC)cc23)cc1
value observed: 87

structure notation: CCCCc1ccc(NC(=O)COc2cc(C)nc3ccc(OC)cc23)cc1
value observed: 90

structure notation: COc1ccc2nc(C)cc(OCC(=O)Nc3ccc(C)c(C)c3)c2c1
value observed: 85

structure notation: COc1ccc2nc(C)cc(OCC(=O)Nc3ccc4c(c3)CCC4)c2c1
value observed: 97

structure notation: CCCCCc1ccc(NC(=O)COc2cc(C)nc3ccc(OC)cc23)cc1
value observed: 97
